System: WNK4
ASSAY CONTEXT: concentration: 1 μM, replicates: in singlicate; n = 1;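 note: KINOMEscan kinase panel screen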

>  <MOLECULE>
CCn1c(-c2nonc2N)nc2ccccc21 [SB-693162/GW549034]

>  <%Inh (%)>
6

$$$$
>  <MOLECULE>
O=c1cc(N2CCOCC2)nc2n(Cc3ccc(F)c(Cl)c3)ccn12 [GSK2297099]

>  <%Inh (%)>
6

$$$$
>  <MOLECULE>
O=C(Nc1n[nH]c2cc(-c3ccccc3F)ccc12)C1CC1 [SB-733371]

>  <%Inh (%)>
6

$$$$

----------
System: AMPK-alpha2
Construct: gene PRKAA2
ASSAY CONTEXT: concentration: 1 μM, replicates: in singlicate; n = 1

>  <COMPOUND>
Nc1ncnc2c1ncn2-c1cccc2ccccc12 [SKF-97184]

>  <TESTED ON>
AMPK-alpha2

>  <%Inh (%)>
21

$$$$
>  <COMPOUND>
Cc1cc(Nc2nc(-c3cccc(C)n3)nc3ccccc23)ccn1 [GW872411]

>  <TESTED ON>
AMPK-alpha2

>  <%Inh (%)>
0

$$$$
>  <COMPOUND>
O=C(NCc1cccs1)c1cc(C(=O)c2c(Cl)cccc2Cl)c[nH]1 [GW823670]

>  <TESTED ON>
AMPK-alpha2

>  <%Inh (%)>
0

$$$$
>  <COMPOUND>
COc1cc(Nc2ccnc3ccc(C(F)(F)F)cc23)cc(OC)c1OC [GW577382]

>  <TESTED ON>
AMPK-alpha2

>  <%Inh (%)>
25

$$$$
>  <COMPOUND>
O=c1cc(N2CCOCC2)nc2n(Cc3ccc(F)c(Cl)c3)ccn12 [GSK2297099]

>  <TESTED ON>
AMPK-alpha2

>  <%Inh (%)>
19

$$$$
>  <COMPOUND>
COc1cc2ncn(-c3cc(OCc4ccc(S(C)(=O)=O)cc4)c(C(N)=O)s3)c2cc1OC [GW869979]

>  <TESTED ON>
AMPK-alpha2

>  <%Inh (%)>
0

$$$$
>  <COMPOUND>
O=C(NCCNc1ccnc(Nc2ccc(F)cc2)n1)Nc1ccc2c(c1)OCO2 [GSK1379882]

>  <TESTED ON>
AMPK-alpha2

>  <%Inh (%)>
2

$$$$
>  <COMPOUND>
CCCNC(=O)Nc1ccc(Oc2ncnc3ccn(C)c23)cc1

>  <TESTED ON>
AMPK-alpha2

>  <%Inh (%)>
12

$$$$
>  <COMPOUND>
Fc1cccc(CSc2nnc(-c3ccc4c(c3)CCO4)o2)c1

>  <TESTED ON>
AMPK-alpha2

>  <%Inh (%)>
17

$$$$
>  <COMPOUND>
Cc1c(Cn2c(C)nn3c(=O)cc(N4CCO[C@H](C)C4)nc23)cccc1C(F)(F)F [GSK2373690]

>  <TESTED ON>
AMPK-alpha2

>  <%Inh (%)>
27

$$$$
>  <COMPOUND>
CCC(=O)c1c(-c2ccccc2)c2cc(Cl)ccc2c(=O)n1Cc1cc(S(C)(=O)=O)n(CCC(C)(C)O)n1

>  <TESTED ON>
AMPK-alpha2

>  <%Inh (%)>
15

$$$$
>  <COMPOUND>
COc1cc2ncn(-c3cc(OCCCc4ccccc4)c(C(N)=O)s3)c2cc1OC [GSK205189]

>  <TESTED ON>
AMPK-alpha2

>  <%Inh (%)>
0

$$$$
>  <COMPOUND>
Cc1ccc(-c2ccc3c(ccc4sc5c(c43)NC[C@@H](C)N=C5N(C)C)n2)cn1

>  <TESTED ON>
AMPK-alpha2

>  <%Inh (%)>
0

$$$$
>  <COMPOUND>
CCCC(=O)Nc1n[nH]c2ncc(-c3cccc4ccccc34)cc12 [SB-642057]

>  <TESTED ON>
AMPK-alpha2

>  <%Inh (%)>
19

$$$$
>  <COMPOUND>
COc1ccc(CNC(=O)NC2CCN(c3ccnc(Nc4ccc(F)cc4)n3)C2)cc1 (stereo not drawn) [GSK1379706]

>  <TESTED ON>
AMPK-alpha2

>  <%Inh (%)>
0

$$$$

----------
System: YSK4
Construct: gene MAP3K19
ASSAY CONTEXT: concentration: 1 μM, replicates: in singlicate; n = 1
Criterion: %Inh strictly less than 10%. Met: True. Not met: False.

>  <MOLECULE>
COc1ccc(-n2cnc3c(N)ncnc32)cc1

>  <LABEL VALUE>
False

$$$$
>  <MOLECULE>
Nc1nc(-c2ccccc2F)c(-c2ccnc3ccccc23)s1

>  <LABEL VALUE>
False

$$$$
>  <MOLECULE>
COc1ccc(-c2cc3c(C)nc(N)nc3n([C@H]3CC[C@H](O)CC3)c2=O)cn1

>  <LABEL VALUE>
True

$$$$
>  <MOLECULE>
CCS(=O)c1ccc(-c2coc3ccc(-c4nnc(C)o4)cc23)cc1 (centres unmarked)

>  <LABEL VALUE>
False

$$$$
>  <MOLECULE>
Cc1cccc(-c2nc(Nc3ccc4c(cnn4C)c3)c3ccccc3n2)n1

>  <LABEL VALUE>
False

$$$$

----------
Test system: MUSK
ASSAY CONTEXT: concentration: 1 μM, replicates: in singlicate; n = 1
REPORTED PROPERTY: %Inh (%)

>  <COMPOUND>
Cn1c(=O)c(F)c(Nc2ccc(I)cc2F)c2c(=O)n(OC[C@H](O)CO)cnc21

>  <READOUT NUMBER>
8

$$$$
>  <COMPOUND>
CCn1c(-c2nonc2N)nc2ccccc21 [SB-693162/GW549034]

>  <READOUT NUMBER>
42

$$$$
>  <COMPOUND>
Cc1cc(Nc2nc(-c3cccc(C)n3)nc3ccccc23)ccn1 [GW872411]

>  <READOUT NUMBER>
9

$$$$
>  <COMPOUND>
COc1cc(Nc2nccc(N3CCC(NC(=O)C4COc5ccccc5O4)C3)n2)cc(OC)c1OC (centres unmarked) [GSK1379761]

>  <READOUT NUMBER>
0

$$$$
>  <COMPOUND>
Cc1nn2c(=O)cc(N3CCOCC3)nc2n1Cc1cccc(Cl)c1Cl [GSK2342769]

>  <READOUT NUMBER>
18

$$$$

----------
Test system: BRK
Construct: gene PTK6
ASSAY CONTEXT: concentration: 1 μM, replicates: in singlicate; n = 1

>  <COMPOUND>
COc1cc(Nc2nccc(N3CCC(NC(=O)C4COc5ccccc5O4)C3)n2)cc(OC)c1OC (stereo not drawn)

>  <ENDPOINT UNIT>
%

>  <%Inh>
2

$$$$
>  <COMPOUND>
CCS(=O)c1ccc(-c2coc3ccc(-c4nnc(C)o4)cc23)cc1 (stereo not drawn)

>  <ENDPOINT UNIT>
%

>  <%Inh>
0

$$$$
>  <COMPOUND>
CN1C(=O)C(Nc2ccccc2)=C(c2ccccc2)C1=O

>  <ENDPOINT UNIT>
%

>  <%Inh>
0

$$$$

----------
Entries and their %Inh
Test system: DCAMKL2
Construct: gene DCLK2
ASSAY CONTEXT: concentration: 1 μM, replicates: in singlicate; n = 1

>  <SMILES STRING>
COc1cccc(-n2cnc3c(N)ncnc32)c1

>  <%Inh / %>
4

$$$$
>  <SMILES STRING>
O=C1NC(=O)C(c2ccccc2)=C1Nc1cccc(O)c1

>  <%Inh / %>
0

$$$$
>  <SMILES STRING>
CN1C(=O)C(Nc2ccccc2)=C(c2ccccc2)C1=O

>  <%Inh / %>
0

$$$$
>  <SMILES STRING>
Nc1nc(-c2ccccc2F)c(-c2ccnc3ccccc23)s1

>  <%Inh / %>
1

$$$$
>  <SMILES STRING>
O=C(Nc1n[nH]c2nc(-c3ccccc3)c(Br)cc12)C1CC1

>  <%Inh / %>
0

$$$$
>  <SMILES STRING>
Cc1cc(Nc2nc(-c3cccc(C)n3)nc3ccccc23)ccn1

>  <%Inh / %>
0

$$$$
>  <SMILES STRING>
COc1cccc(C2=C(Nc3cccc(C(=O)O)c3)C(=O)NC2=O)c1

>  <%Inh / %>
0

$$$$
